biological target: LytA239–252 (Streptococcus pneumoniae)
PROPERTY_NAME: Kd (mM)
# value in mM; strip the unit string

Please give measured Kd of the following entry: C[N+](C)(C)CCO
80
